Where these numbers come from: a collection of fitness landscapes (doi:10.1016/j.celrep.2020.107928)

B1: Caulobacter ParB omega fusion; a variant is named by its letters at X, in order, B8GW30 (parent)
chain: MESVVVGEPGMSEGRRGLGRGLSALLGEVDAAPAQAPGEQLGGSREAPIEILQRNPDQPRRTFREEDLEDLSNSIREKGVLQPILVRPSPDTAGEYQIVAGERAWRAAQRAGLKTVPIMVRELDDLAVLEIGIIENVQRADLNVLEEALSYKVLMEKFERTQENIAQTIGKSXSHVANXMRLLXLPDEVQSYLVSGELTAXHARAIAAAADPVALAKQIIEGGLSVRETEALARKAPNLSAGKSKGGRPPRVKDTDTQALESDLSSVLGLDVSIDHRGSTGTLTITYATLEQLDDLCNRLTRGI

variants of: B1; experiment: one-hybrid fitness for binding parS DNA (scaled: cognate 1, non-cognate 0); higher = stronger binding; conditions: with parS DNA site
Over roughly 81,000 sequences, “one-hybrid fitness for binding parS DNA” has its median near -0.17; the highest 2% begin near 0.51. For the sample, the highest values were picked, then their nearest neighbours and some sequences at random.
Catalogue of one-hybrid fitness for binding parS DNA values
READOUT LABEL: one-hybrid fitness for binding parS DNA

>>> obs_value("RKGD")
"≤ 0.2"
>>> obs_value("DTMA")
"≤ 0.2"
>>> obs_value("CACK")
"≤ 0.2"
>>> obs_value("TRVI")
"≤ 0.2"
>>> obs_value("NTMA")
"≤ 0.2"
>>> obs_value("ESYW")
"≤ 0.2"
>>> obs_value("AYMA")
"≤ 0.2"
>>> obs_value("NNVS")
"≤ 0.2"
>>> obs_value("PMRT")
"≤ 0.2"
>>> obs_value("RHGN")
0.363
>>> obs_value("EAGS")
"≤ 0.2"
>>> obs_value("RYGH")
"≤ 0.2"
>>> obs_value("NMKR")
"≤ 0.2"
>>> obs_value("RSMA")
0.576
>>> obs_value("CVLT")
"≤ 0.2"
>>> obs_value("NYGR")
"≤ 0.2"
>>> obs_value("RRQH")
"≤ 0.2"
>>> obs_value("RRQM")
0.324
>>> obs_value("AANC")
"≤ 0.2"
>>> obs_value("YKKF")
"≤ 0.2"
>>> obs_value("HYRI")
"≤ 0.2"
>>> obs_value("SYMA")
"≤ 0.2"
>>> obs_value("MWAV")
"≤ 0.2"
>>> obs_value("RMRC")
0.867
>>> obs_value("RMCF")
0.217
>>> obs_value("TTRY")
"≤ 0.2"
>>> obs_value("QANF")
"≤ 0.2"
>>> obs_value("RRMA")
0.809
>>> obs_value("GQFL")
"≤ 0.2"
>>> obs_value("ADYG")
"≤ 0.2"
>>> obs_value("RRQP")
"≤ 0.2"
>>> obs_value("RTGN")
0.44
>>> obs_value("RIGN")
0.477
>>> obs_value("RYGC")
0.914
>>> obs_value("MPHS")
"≤ 0.2"
>>> obs_value("RTGD")
"≤ 0.2"
>>> obs_value("TKDN")
"≤ 0.2"
>>> obs_value("RYMA")
0.553
>>> obs_value("MYTG")
"≤ 0.2"
>>> obs_value("NRMA")
"≤ 0.2"
>>> obs_value("RWMA")
0.287
>>> obs_value("GCSG")
"≤ 0.2"
>>> obs_value("RMRH")
0.261
>>> obs_value("RKGS")
0.833
>>> obs_value("IESL")
"≤ 0.2"
>>> obs_value("WVLH")
"≤ 0.2"
